Overview of recorded ML-2 %inh for various molecules
tested on: ML-2; design: species or system AML cell lines (8); Primary HTS, single concentration about 10 uM, Cell Titer Glo viability; log10 luminescence, per cent inhibition relative to cycloheximide control; conditions: 72 h, relative to cycloheximide control, log10 luminescence; inhibitor
Don't forget the unit after the number, please.

// worked examples, ML-2 %inh included
query-smiles | ML-2 %inh
O=C1Nc2ccc(I)cc2C1=Cc1cc(Br)c(O)c(Br)c1 | -0.3991%
O=C(/C=C/c1ccc(CN(CCO)CCc2c[nH]c3ccccc23)cc1)NO | 65.79%
COc1cc[nH]c1/C=C1\C(=O)Nc2ccc(F)c(C#C[C@@H](O)[C@@H](N)[C@@H](C)O)c21 | 60.99%
CCn1c(-c2nonc2N)nc2c(C#CCN)ncc(OCCCN)c21 | 0.8489%
CCC[C@@H]1CC2=CC(=O)CC[C@]2(C)[C@H]2CC[C@@]3(C)[C@@H](CC[C@@]3(O)CCC(=O)O)[C@H]12 | 3.121%
CCn1c(-c2nonc2N)nc2c(C#CC(C)(C)O)nc(OC[C@H](N)c3ccccc3)cc21 | 28.64%

Switching to the query record.
q: I have this molecule here, "CCn1c(-c2nonc2N)nc2ccc(F)cc21" , and I need its recorded ML-2 %inh.
a: -0.6145%

###

Overview of recorded ML-2 %inh for various compounds
system: ML-2; set-up: species or system AML cell lines (8); Primary HTS, single concentration about 10 uM, Cell Titer Glo viability; log10 luminescence, per cent inhibition relative to cycloheximide control; details: 72 h, relative to cycloheximide control, log10 luminescence; inhibitor
Counter-ions that a name gives are not always drawn.
The answer is to be given in %; state only the numeric part.

// worked examples, ML-2 %inh included
compound | ML-2 %inh / %
COC(=O)C1=C(C)N(CCc2cc(OC)c(OC)c(OC)c2)C(=O)N[C@H]1c1ccccc1 | -0.773
COc1cc[nH]c1/C=C1\C(=O)Nc2ccc(F)c(C#CC3(O)CCNCC3)c21 | 57.56
N=C(N)NCCN1CCCCCCC1 [SJ000285779-4, GUANETHIDINE SULFATE] | 1.503
CC(=O)OCC(CCn1cnc2cnc(N)nc21)COC(C)=O | -0.1732

q: Notebook: pull reported ML-2 %inh for ML-2, entry "C[C@H](NC(=O)Cc1cc(F)cc(F)c1)C(=O)N[C@H](C(=O)OC(C)(C)C)c1ccccc1"
a: 5.016

q: Notebook: pull reported ML-2 %inh for ML-2, entry Cc1c(F)c(N2CCNC(C)C2)cc2c1c(=O)c(C(=O)O)cn2C1CC1 (centres unmarked)
a: -2.485

q: Notebook: pull reported ML-2 %inh for ML-2, entry CCN(CC)C(=O)N1CCN(C)CC1 [SJ000285736-4, DIETHYLCARBAMAZINE CITRATE]
a: -1.11

q: Notebook: pull reported ML-2 %inh for ML-2, entry "CNC(=O)c1cncc(/C=C/c2c(Cl)cccc2Cl)c1"
a: -0.3801

###

tested on: U937; set-up: species or system AML cell lines (8); Primary HTS, single concentration about 10 uM, Cell Titer Glo viability; log10 luminescence, per cent inhibition relative to cycloheximide control; conditions: 72 h, relative to cycloheximide control, log10 luminescence; inhibitor
Structures can show the parent of a compound that is named as a salt.
test-readout: U937 %inh (%)
The answer is to be given in %; state only the numeric part.

// worked examples, U937 %inh included
compound | target-entity | U937 %inh [%]
CCOC(=O)c1c(C)[nH]c(/C=C2\C(=O)Nc3ccccc32)c1C [SJ000773165-1, VEGFR2 KINASE INHIBITOR I] | U937 | -1.551
CCS(=O)(=O)c1ccc(OC)c(Nc2nccc(N(C)c3ccc4c(C)n[nH]c4c3)n2)c1 [SJ000573103-1, U20513/4/2] | U937 | 1.879
COc1cc(C(C)C)c2c(c1)S(=O)(=O)N(COc1cc(=O)n3cccc(OCCN4CCCCC4)c3n1)C2=O [SJ000772427-1, SSR 69071] | U937 | 2.526
c1ccc(Oc2ccc(Nc3ncc(-c4ccccc4)o3)cc2)cc1 [SJ000573154-1, U15924/95/2] | U937 | 3.231
O=C1NC(=NCCCc2ccccc2)S/C1=C\c1ccc2ncccc2c1 [SJ000581127-1] | U937 | 2.066
COc1ccc2ncn(-c3cc(O[C@H](C)c4ccccc4Cl)c(C(N)=O)s3)c2c1 [SJ000573018-1, U20814/197/10] | U937 | 80.58
CCCCNC(=O)[C@@H]1Cc2ccccc2N1C(=O)[C@@H](N)CC [SJ000772394-1, BUTABINDIDE OXALATE] | U937 | 2.937

Switching to the query record.
q: Notebook: pull reported U937 %inh for U937, entry Cc1cc(C)c2c(n1)sc1c(N)ncnc12 [SJ000581012-1]
a: 3.328

Source: paper PMC6522510
